Assign Ki to each entry below.
- TARGET_OF_ASSAY: human CRTH2 receptor (Homo sapiens, UniProt Q9Y5Y4)
- Construct: membranes prepared in house from the purchased cell line
- EXPERIMENTAL_DETAILS: Human CRTH2 receptor membrane radioligand binding assay (SPA, [3H]-PGD2)
- CONDITION_PARAMETERS: displacement of [3H]-PGD2 (1 nM) from CHO-K1-hCRTH2 cell membranes, 3 h room temperature
- Protocol: Preparation of Human CRTH2 Receptor Membranes and Radioligand Binding Assay The binding of CRTH2 antagonists is determined using membranes prepared from Chinese hamster ovary cells (CHO-K1 cells) transfected with the human CRTH2 receptor (CHO-K1-hCRTH2 cells, Perkin Elmer, Cat No ES-561-C). To produce cell membranes the CHO-K1-hCRTH2 cells are cultured in suspension in CHO SFMII medium supplemented with 400 μg/ml G418. […]
Quick reminder: number only, in nM, skip the unit.

query: Given the molecule `Cc1nn(Cc2ccc(NC(=O)c3ccc4ccccc4c3)cc2)c(-c2ccccc2)c1CC(=O)O` , what is its reported Ki?
result: 1.3

query: Record: `Cc1nn(Cc2ccc(NC(=O)/C=C/c3ccccc3)cc2F)c(C)c1CC(=O)O`
result: 1.9

query: Record: `CCc1nn(Cc2ccc(C(=O)NCc3ccc4ccccc4c3)cc2)c(CC)c1CC(=O)O`
result: 34.9

query: Record: Cc1nn(Cc2ccc(C(C)Oc3ccc(Cl)c(Cl)c3)cc2)c(C)c1CC(=O)O (centres unmarked)
result: 29

query: Record: `O=C(O)Cc1c(-c2ccccc2)nn(Cc2ccc(NC(=O)c3ccc(Cl)cc3)cc2)c1-c1ccccc1`
result: 17.4

query: Record: `Cc1nn(Cc2ccc(NC(=O)c3ccc(C(C)(C)C)cc3)cc2)c(C)c1CCC(=O)O`
result: 26.1

query: Record: `Cc1cc(Cn2nc(C)c(CC(=O)O)c2C)ccc1NC(=O)c1ccc(C(F)(F)F)cc1`
result: 13.5

query: Record: `CCc1nn(Cc2ccc(OCc3cccc(C)c3)cc2)c(CC)c1CC(=O)O`
result: 49.9

###

- TARGET_OF_ASSAY: human CRTH2 receptor (Homo sapiens, UniProt Q9Y5Y4)
- Construct: membranes prepared in house from the purchased cell line
- Sequence (Q9Y5Y4 1-395): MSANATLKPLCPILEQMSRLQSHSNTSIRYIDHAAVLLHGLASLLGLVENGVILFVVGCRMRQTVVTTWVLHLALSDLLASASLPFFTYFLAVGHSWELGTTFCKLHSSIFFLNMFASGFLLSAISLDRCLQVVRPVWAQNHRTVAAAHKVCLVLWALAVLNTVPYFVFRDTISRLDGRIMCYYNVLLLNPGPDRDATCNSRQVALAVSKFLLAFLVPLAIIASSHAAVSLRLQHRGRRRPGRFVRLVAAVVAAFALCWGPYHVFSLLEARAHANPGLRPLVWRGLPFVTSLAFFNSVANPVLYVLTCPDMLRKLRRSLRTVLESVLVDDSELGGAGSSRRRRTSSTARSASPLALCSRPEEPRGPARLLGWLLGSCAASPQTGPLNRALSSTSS
- EXPERIMENTAL_DETAILS: Human CRTH2 receptor membrane radioligand binding assay (SPA, [3H]-PGD2)
- CONDITION_PARAMETERS: displacement of [3H]-PGD2 (1 nM) from CHO-K1-hCRTH2 cell membranes, 3 h room temperature
Assign pKi to each entry below.
// pKi is dimensionless: -log10 of concentration (M)

query: Given the compound Cc1cc(Cn2nc(C)c(CC(=O)O)c2C)ccc1NC(=O)c1ccc(Cl)c(Cl)c1 [Example 7.4] , what is its reported pKi?
result: 8.66

query: Record: CCc1nn(Cc2ccc(/C=C/c3ccc(Cl)cc3)cc2)c(CC)c1CC(=O)O [Example 12.3]
result: 7.91

query: Record: Cc1nn(Cc2ccc(OCc3ccc(Cl)c(Cl)c3)cc2)c(C)c1CC(=O)O [Example 13.1]
result: 7.52

query: Record: CCc1nn(Cc2ccc(NC(=O)c3cccc(C)c3Br)cc2)c(CC)c1CC(=O)O [Example 2.25]
result: 7.33

###

Assign Ki to each entry below.
- TARGET_OF_ASSAY: human CRTH2 receptor (Homo sapiens, UniProt Q9Y5Y4)
- Construct: membranes prepared in house from the purchased cell line
- EXPERIMENTAL_DETAILS: Human CRTH2 receptor membrane radioligand binding assay (SPA, [3H]-PGD2)
- CONDITION_PARAMETERS: displacement of [3H]-PGD2 (1 nM) from CHO-K1-hCRTH2 cell membranes, 3 h room temperature
Quick reminder: number only, in nM, skip the unit.

query: What reported Ki corresponds to `Cc1nn(Cc2ccc(NC(=O)/C=C/c3ccccc3)cc2)c(C)c1CC(=O)O` on human CRTH2 receptor (Homo sapiens, UniProt Q9Y5Y4)?
result: 4

query: Record: `Cc1nn(Cc2ccc(S(=O)(=O)Nc3ccc(F)cc3)cc2)c(C)c1CC(=O)O`
result: 2.6

query: Record: `CCc1nn(Cc2ccc(NC(=O)c3cccc4ccccc34)cc2)c(C2CC2)c1CC(=O)O`
result: 1.8

query: Record: `CCc1nn(Cc2ccc(NC(=O)c3cc(C)ccc3Br)cc2)c(CC)c1CC(=O)O`
result: 5.8

query: Record: `Cc1ccc(C(=O)Nc2ccc(Cn3nc(C)c(CC(=O)O)c3C)cc2)cc1`
result: 7.7

query: Record: `CCc1nn(Cc2ccc(C(=O)NC3CCC(C)(C)CC3)cc2)c(CC)c1CC(=O)O`
result: 49.1

query: Record: `CCc1nn(Cc2ccc(C(=O)Nc3ccc(Cl)c(C(F)(F)F)c3)cc2)c(CC)c1CC(=O)O`
result: 0.9

query: Record: `Cc1nn(Cc2ccc(NC(=O)c3ccccc3)cc2)c(C)c1CC(=O)O`
result: 30.8

###

- TARGET_OF_ASSAY: human CRTH2 receptor (Homo sapiens, UniProt Q9Y5Y4)
- Construct: host or cells: CHO-K1 (CHO-K1-hCRTH2 cells); membranes prepared in house from the purchased cell line
- EXPERIMENTAL_DETAILS: Human CRTH2 receptor membrane radioligand binding assay (SPA, [3H]-PGD2)
- CONDITION_PARAMETERS: displacement of [3H]-PGD2 (1 nM) from CHO-K1-hCRTH2 cell membranes, 3 h room temperature
MEASURED_ENDPOINT: Ki (nM)
Quick reminder: number only, in nM, skip the unit.

query: Given the compound Cc1nn(Cc2ccc(NC(=O)c3ccc4ccccc4c3)cc2)cc1CC(=O)O [Example 2.57] , what is its reported Ki?
result: 19.3

query: Record: Cc1nn(Cc2ccc(CS(=O)(=O)c3ccc(C(F)(F)F)cc3)cc2)c(C)c1CC(=O)O [Example 16.3]
result: 2290

query: Record: Cc1cc(Cl)ccc1C(=O)Nc1ccc(Cn2nc(C)c(CC(=O)O)c2C)c(Cl)c1 [Example 7.7]
result: 3.4

query: Record: Cc1ccc(Br)c(C(=O)Nc2ccc(Cn3nc(C)c(CC(=O)O)c3C)cc2)c1 [Example 1.31]
result: 18.9

###

Assign pKi to each entry below.
- TARGET_OF_ASSAY: human CRTH2 receptor (Homo sapiens)
- Construct: membranes prepared in house from the purchased cell line
- Sequence (Q9Y5Y4 1-395): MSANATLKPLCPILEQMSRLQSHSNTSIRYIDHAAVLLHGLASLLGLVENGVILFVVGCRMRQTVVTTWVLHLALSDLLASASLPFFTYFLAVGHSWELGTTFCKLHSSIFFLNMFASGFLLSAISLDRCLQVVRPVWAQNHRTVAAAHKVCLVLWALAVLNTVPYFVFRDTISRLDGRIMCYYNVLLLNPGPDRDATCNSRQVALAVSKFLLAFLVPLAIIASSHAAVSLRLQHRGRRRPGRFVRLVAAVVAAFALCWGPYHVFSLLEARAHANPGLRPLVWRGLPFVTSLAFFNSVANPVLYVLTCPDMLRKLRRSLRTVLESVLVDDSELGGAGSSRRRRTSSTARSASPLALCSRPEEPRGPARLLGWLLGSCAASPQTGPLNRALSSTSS
- EXPERIMENTAL_DETAILS: Human CRTH2 receptor membrane radioligand binding assay (SPA, [3H]-PGD2)
- CONDITION_PARAMETERS: displacement of [3H]-PGD2 (1 nM) from CHO-K1-hCRTH2 cell membranes, 3 h room temperature
// pKi is dimensionless: -log10 of concentration (M)

query: Given the molecule `CCc1nn(Cc2ccc(NC(=O)c3ccc(C(F)(F)F)cc3)cc2)c(C)c1CC(=O)O` , what is its reported pKi?
result: 9.70

query: Record: `Cc1nn(Cc2ccc(NC(=O)c3ccc(Cl)c(Cl)c3)cc2Cl)c(C)c1CC(=O)O`
result: 9.22

query: Record: `CCc1nn(Cc2ccc(NC(=O)c3ccc4ccccc4c3)cc2)c(CC)c1CC(=O)O`
result: 9.70

query: Record: Cc1nn(Cc2ccc(C(C)Oc3ccc(C(F)(F)F)cc3)cc2)c(C)c1CC(=O)O (centres unmarked)
result: 6.60

query: Record: `CCc1nn(Cc2ccc(NC(=O)c3ccccc3C3CC3)cc2)c(CC)c1CC(=O)O`
result: 7.94

query: Record: `Cc1nn(Cc2ccc(OCc3ccc(Cl)c(C(F)(F)F)c3)cc2)c(C)c1CC(=O)O`
result: 7.44

query: Record: `CCc1nn(Cc2ccc(NC(=O)c3ccc(Br)cc3Cl)cc2)c(CC)c1CC(=O)O`
result: 8.72

query: Record: `CCc1nn(Cc2ccc(C(=O)NCc3ccc(Cl)c(Cl)c3)cc2)c(CC)c1CC(=O)O`
result: 7.60
